Origin of the recorded values: ChEMBL document CHEMBL1156237

Field: EC50. Provide a value for each of the compounds that follow.
# Test system: Coxsackievirus B2
# assay: Antiviral activity against Human coxsackievirus B2 Ohio-1 infected in african green monkey Vero cells after 3 days by plaque reduction assay
# Format: functional, organism-based, Coxsackievirus B2 (strain Ohio-1)
# condition: Enterovirus B, Vero, 72 h

Identify measured EC50 associated with `O=C(CNC12CC3CC(CC(C3)C1)C2)Nc1ccc(-c2nc3cc(C(F)(F)F)ccc3[nH]2)cc1`
> 45 µM

Identify measured EC50 associated with `CCC(=O)Nc1ccc(-c2nc3cc(C(F)(F)F)ccc3n2C23CC4CC(CC(C4)C2)C3)cc1`
> 100 µM

Identify measured EC50 associated with `COc1ccc(-c2nc3cc(C(C)=O)ccc3[nH]2)c(OC)c1OC`
> 100 µM

Identify measured EC50 associated with `Oc1ccc(-c2nc3cc(Cl)c(Cl)cc3[nH]2)cc1`
> 18 µM

Identify measured EC50 associated with `Cn1c(-c2ccc(NC(=O)CN3CCOCC3)cc2)nc2cc(C(F)(F)F)ccc21`
> 100 µM

Identify measured EC50 associated with `O=C(CCl)Nc1ccc(-c2nc3cc(C(F)(F)F)ccc3n2C23CC4CC(CC(C4)C2)C3)cc1`
> 100 µM

----------
# System: Coxsackievirus B2
# assay: Antiviral activity against Human coxsackievirus B2 Ohio-1 infected in african green monkey Vero cells after 3 days by plaque reduction assay
# Type: functional, organism-based, Coxsackievirus B2 (strain Ohio-1)
# condition: Enterovirus B, Vero, 72 h
endpoint name: EC50 (µM)
All answers are understood in µM, so give the number only.

Identify measured EC50 associated with C#C[C@@]1(O)[C@H](O)[C@@H](CO)O[C@H]1n1ccc(N)nc1=O [2'-ETHYNYL-D-CYTIDINE]
27

Identify measured EC50 associated with `O=C(CCl)Nc1ccc(-c2nc3cc(C(F)(F)F)ccc3[nH]2)cc1`
24

----------
# assay: Cytotoxicity against human MT4 cells after 96 hrs by MTT assay
# Type: cell-based
# condition: MT4 cells
Param label: returns true (1) when CC50 at 96 h < 9 µM, returns false (0) otherwise, including exact equality.

Consider the compound `COc1ccc(-c2nc3cc([N+](=O)[O-])ccc3[nH]2)c(OC)c1OC` . Is its CC50 at 96 h strictly less than 9 µM?
false (0)

Consider the compound `O=[N+]([O-])c1ccc(-c2nc3cc(C(F)(F)F)ccc3n2C23CC4CC(CC(C4)C2)C3)cc1` . Is its CC50 at 96 h strictly less than 9 µM?
false (0)

Consider the compound `CC(=O)Nc1ccc(-c2nc3cc([N+](=O)[O-])ccc3[nH]2)cc1` . Is its CC50 at 96 h strictly less than 9 µM?
false (0)

Consider the compound `Nc1ccc(-c2nc3ccccc3[nH]2)cc1` . Is its CC50 at 96 h strictly less than 9 µM?
false (0)

Consider the compound `COc1ccc(-c2nc3cc(C(C)=O)ccc3[nH]2)c(OC)c1` . Is its CC50 at 96 h strictly less than 9 µM?
false (0)

Consider the compound `C#C[C@@]1(O)[C@H](O)[C@@H](CO)O[C@H]1n1ccc(N)nc1=O` . Is its CC50 at 96 h strictly less than 9 µM?
false (0)

Consider the compound `Nc1nc2c(ncn2COCCO)c(=O)[nH]1` . Is its CC50 at 96 h strictly less than 9 µM?
false (0)

Consider the compound `O=C(CCl)Nc1ccc(-c2nc3cc(C(F)(F)F)ccc3[nH]2)cc1` . Is its CC50 at 96 h strictly less than 9 µM?
true (1)

Consider the compound `Oc1ccc(-c2nc3cc(Cl)c(Cl)cc3[nH]2)cc1` . Is its CC50 at 96 h strictly less than 9 µM?
false (0)

Consider the compound `O=C(CN1CCN(c2ccccc2)CC1)Nc1ccc(-c2nc3cc(C(F)(F)F)ccc3n2C23CC4CC(CC(C4)C2)C3)cc1` . Is its CC50 at 96 h strictly less than 9 µM?
false (0)

Consider the compound `Nc1ccc(-c2nc3cc([N+](=O)[O-])ccc3[nH]2)cc1` . Is its CC50 at 96 h strictly less than 9 µM?
false (0)

Consider the compound `CCC(=O)Nc1ccc(-c2nc3cc(C(F)(F)F)ccc3[nH]2)cc1` . Is its CC50 at 96 h strictly less than 9 µM?
false (0)

Consider the compound `Cn1c(-c2ccc([N+](=O)[O-])cc2)nc2cc(C(F)(F)F)ccc21` . Is its CC50 at 96 h strictly less than 9 µM?
false (0)

Consider the compound `Fc1cccc(F)c1-c1nc2cc(C(F)(F)F)ccc2[nH]1` . Is its CC50 at 96 h strictly less than 9 µM?
false (0)

Consider the compound `Fc1cccc(F)c1-c1nc2cc(Cl)c(Cl)cc2[nH]1` . Is its CC50 at 96 h strictly less than 9 µM?
false (0)

Consider the compound `COc1ccc(-c2nc3cc(Cl)c(Cl)cc3[nH]2)c([N+](=O)[O-])c1` . Is its CC50 at 96 h strictly less than 9 µM?
true (1)

Consider the compound `CCC(=O)Nc1ccc(-c2nc3cc(C(F)(F)F)ccc3n2C23CC4CC(CC(C4)C2)C3)cc1` . Is its CC50 at 96 h strictly less than 9 µM?
false (0)

Consider the compound `O=[N+]([O-])c1ccc(-c2nc3cc(C(F)(F)F)ccc3[nH]2)cc1` . Is its CC50 at 96 h strictly less than 9 µM?
true (1)

Consider the compound `O=C(CN1CCCC1)Nc1ccc(-c2nc3cc(Cl)c(Cl)cc3[nH]2)cc1` . Is its CC50 at 96 h strictly less than 9 µM?
true (1)

Consider the compound `CCN(CC)CC(=O)Nc1ccc(-c2nc3cc(C(F)(F)F)ccc3[nH]2)cc1` . Is its CC50 at 96 h strictly less than 9 µM?
true (1)

Consider the compound `O=C(Nc1ccc(-c2nc3cc(C(F)(F)F)ccc3[nH]2)cc1)Nc1ccc(-c2nc3cc(C(F)(F)F)ccc3[nH]2)cc1` . Is its CC50 at 96 h strictly less than 9 µM?
false (0)

Consider the compound `O=C(CN1CCOCC1)Nc1ccc(-c2nc3ccccc3[nH]2)cc1` . Is its CC50 at 96 h strictly less than 9 µM?
false (0)

Consider the compound `Nc1ccc(-c2nc3cc(Cl)c(Cl)cc3[nH]2)cc1` . Is its CC50 at 96 h strictly less than 9 µM?
false (0)

Consider the compound `O=C(CCl)Nc1ccc(-c2nc3cc(C(F)(F)F)ccc3n2C23CC4CC(CC(C4)C2)C3)cc1` . Is its CC50 at 96 h strictly less than 9 µM?
true (1)
